Listed next: entries and their corresponding pIC50.
# system.name: receptor interacting protein kinase 1 (GST-hRIPK1 (8-327)) (Homo sapiens)
# Construct: GST-hRIPK1 (8-327) enzyme was generated by Proteros GmbH by Baculovirus expression system
# Sequence (Q13546 8-327): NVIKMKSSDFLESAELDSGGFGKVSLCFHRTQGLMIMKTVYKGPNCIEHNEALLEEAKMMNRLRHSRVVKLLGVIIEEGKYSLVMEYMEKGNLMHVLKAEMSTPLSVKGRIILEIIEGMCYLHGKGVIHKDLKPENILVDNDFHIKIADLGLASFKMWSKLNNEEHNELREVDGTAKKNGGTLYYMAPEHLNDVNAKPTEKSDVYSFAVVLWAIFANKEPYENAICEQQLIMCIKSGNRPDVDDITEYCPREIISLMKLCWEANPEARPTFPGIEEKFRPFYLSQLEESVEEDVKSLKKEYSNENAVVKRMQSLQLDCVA
# assay.notes: Fluorescent Polarization Binding (FP Binding) assay
# test.conditions: 10 nM GST-hRIPK1 (8-327), 5 nM fluorescent-labeled ligand, 30 min at RT
# Description: […] After addition of 5 μL of fluorescent-labeled ligand at twice the final concentrations in assay buffer, the plate was incubated at RT for 30 min. At the end, the binding was measured as FP value with the Envision (PerkinElmer) plate reader using filter for an excitation λ=531 nm FP and an emission λ=595 nm FP (S & P-pol). Test compound inhibition was expressed as percent inhibition of internal assay controls. […]
pIC50: −log10 of the molar value.

CC1(C(=O)N2OCC[C@H]2c2ccc(F)cc2)CCCOC1 (single isomer, unassigned) [Compound 35] = > 6.00
CC1(C(=O)N2OCC[C@H]2c2ccc(F)cc2)CNC1 = < 5.00
C[C@H]1C[C@@H](c2ccc(C#N)cc2)N(C(=O)C(C)(C)C)O1 (single isomer, unassigned) = > 6.00

Please turn your attention to the following entry.
Provide measured pIC50 on receptor interacting protein kinase 1 (GST-hRIPK1 (8-327)) (Homo sapiens) for CC1CC1C(=O)N1OCC[C@H]1c1ccc(C#N)cc1 (single isomer, unassigned) [Compound 216] please.
5.00 to 6.00

---

# system.name: receptor interacting protein kinase 1 (GST-hRIPK1 (8-327)) (Homo sapiens, UniProt Q13546)
# Construct: GST-hRIPK1 (8-327) enzyme was generated by Proteros GmbH by Baculovirus expression system
# Sequence (Q13546 8-327): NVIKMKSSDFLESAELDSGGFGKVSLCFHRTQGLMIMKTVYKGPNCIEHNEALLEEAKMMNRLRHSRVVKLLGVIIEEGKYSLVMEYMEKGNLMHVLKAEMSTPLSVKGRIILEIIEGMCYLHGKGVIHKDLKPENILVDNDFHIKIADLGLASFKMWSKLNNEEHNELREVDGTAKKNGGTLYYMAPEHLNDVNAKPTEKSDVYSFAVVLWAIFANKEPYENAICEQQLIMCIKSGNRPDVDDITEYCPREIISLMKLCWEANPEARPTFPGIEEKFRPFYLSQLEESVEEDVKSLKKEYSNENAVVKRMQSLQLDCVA
# assay.notes: Fluorescent Polarization Binding (FP Binding) assay
# test.conditions: 10 nM GST-hRIPK1 (8-327), 5 nM fluorescent-labeled ligand, 30 min at RT
Listed next: entries and their corresponding IC50.

CC(C)(C)C(=O)N1OCC[C@H]1c1ccnc(N)c1 = 1000 to 10000 nM
CC1(C(=O)N2OCC[C@H]2c2ccc(F)cc2)CC(F)(F)C1 = < 1000 nM
CC(C)(C(=O)N1OCC[C@H]1c1ccc(/C(N)=N/O)cc1)C(F)F = 1000 to 10000 nM
CC(C)(C(=O)N1OCC[C@H]1c1ccccc1)C(F)(F)F = < 1000 nM
N#CC1(C(=O)N2OCC[C@H]2c2ccccc2)CCC1 = < 1000 nM
CC(C)C(=O)N1OCC[C@H]1c1ccc(F)cc1 = < 1000 nM

Provide measured IC50 on receptor interacting protein kinase 1 (GST-hRIPK1 (8-327)) (Homo sapiens, UniProt Q13546) for CC(C)(C)C(=O)N1OCC[C@@H]1c1ccc(F)cc1F please.
< 1000 nM

Provide measured IC50 on receptor interacting protein kinase 1 (GST-hRIPK1 (8-327)) (Homo sapiens, UniProt Q13546) for Cc1ncc([C@@H]2CCON2C(=O)C(C)C2CC2)cc1F (single isomer, unassigned) [Compound 217] please.
< 1000 nM

Provide measured IC50 on receptor interacting protein kinase 1 (GST-hRIPK1 (8-327)) (Homo sapiens, UniProt Q13546) for CC(C)(C)C(=O)N1OCC[C@H]1c1ncc(Cl)cc1F please.
< 1000 nM

Provide measured IC50 on receptor interacting protein kinase 1 (GST-hRIPK1 (8-327)) (Homo sapiens, UniProt Q13546) for CC(C)(C)C(=O)N1OCC[C@@H]1c1ccnc(F)c1 please.
1000 to 10000 nM

Provide measured IC50 on receptor interacting protein kinase 1 (GST-hRIPK1 (8-327)) (Homo sapiens, UniProt Q13546) for CC(C)(COC(F)F)C(=O)N1OCC[C@H]1c1ccc(C#N)cc1 please.
< 1000 nM

Provide measured IC50 on receptor interacting protein kinase 1 (GST-hRIPK1 (8-327)) (Homo sapiens, UniProt Q13546) for CC(C)(C)C(=O)N1OCC[C@H]1c1cc(F)cc(F)c1 (single isomer, unassigned) please.
< 1000 nM

Provide measured IC50 on receptor interacting protein kinase 1 (GST-hRIPK1 (8-327)) (Homo sapiens, UniProt Q13546) for CC(C)(C)C(=O)N1OCC[C@H]1c1cccc(C#N)c1 please.
< 1000 nM

Provide measured IC50 on receptor interacting protein kinase 1 (GST-hRIPK1 (8-327)) (Homo sapiens, UniProt Q13546) for [2H]C([2H])([2H])C(C(=O)N1OCC[C@H]1c1ccc(F)nc1)(C([2H])([2H])[2H])C([2H])([2H])[2H] please.
< 1000 nM

Provide measured IC50 on receptor interacting protein kinase 1 (GST-hRIPK1 (8-327)) (Homo sapiens, UniProt Q13546) for CC(C(=O)N1OCCC1c1ccc(C#N)cc1)C(F)F (single isomer, unassigned) [Compound 91] please.
< 1000 nM

Provide measured IC50 on receptor interacting protein kinase 1 (GST-hRIPK1 (8-327)) (Homo sapiens, UniProt Q13546) for CC(C)(C)C(=O)N1OCCC1c1cccnc1F (stereo not shown) please.
< 1000 nM

Provide measured IC50 on receptor interacting protein kinase 1 (GST-hRIPK1 (8-327)) (Homo sapiens, UniProt Q13546) for CC(C)(C)C(=O)N1OCC[C@@H]1c1cccnc1F please.
1000 to 10000 nM

Provide measured IC50 on receptor interacting protein kinase 1 (GST-hRIPK1 (8-327)) (Homo sapiens, UniProt Q13546) for CC(C)(C)C(=O)N1OCC[C@H]1c1ccc(C(F)F)nc1 please.
< 1000 nM

Provide measured IC50 on receptor interacting protein kinase 1 (GST-hRIPK1 (8-327)) (Homo sapiens, UniProt Q13546) for Cc1ccc([C@@H]2CCON2C(=O)C(C)(C)C(F)F)cn1 please.
< 1000 nM

Provide measured IC50 on receptor interacting protein kinase 1 (GST-hRIPK1 (8-327)) (Homo sapiens, UniProt Q13546) for CC(C)C(=O)N1OCC[C@H]1c1ccccc1 please.
< 1000 nM

---

# system.name: receptor interacting protein kinase 1 (GST-hRIPK1 (8-327)) (Homo sapiens, UniProt Q13546)
# Construct: GST-hRIPK1 (8-327) enzyme was generated by Proteros GmbH by Baculovirus expression system
# assay.notes: Fluorescent Polarization Binding (FP Binding) assay
# test.conditions: 10 nM GST-hRIPK1 (8-327), 5 nM fluorescent-labeled ligand, 30 min at RT
pIC50: −log10 of the molar value.
property.measured: pIC50

Look over these answered cases.
CC(C)(C)C(=O)N1OCC[C@H]1c1cncc(F)c1 = > 6.00
CC1(C(=O)N2OCC[C@H]2c2ccc(F)cc2)CCCO1 (single isomer, unassigned) [Compound 136] = 5.00 to 6.00
CC(C)(C)C(=O)N1OCC[C@@H]1c1c(F)cccc1F = 5.00 to 6.00
O=C(c1onc2ccccc12)N1OCC[C@H]1c1ccccc1 = > 6.00

Please turn your attention to the following entry.
Answer with the recorded pIC50 for the compound listed here: C[C@H](O)C(=O)N1OCC[C@H]1c1ccccc1
< 5.00

---

# system.name: receptor interacting protein kinase 1 (GST-hRIPK1 (8-327)) (Homo sapiens)
# Construct: GST-hRIPK1 (8-327) enzyme was generated by Proteros GmbH by Baculovirus expression system
# Sequence (Q13546 8-327): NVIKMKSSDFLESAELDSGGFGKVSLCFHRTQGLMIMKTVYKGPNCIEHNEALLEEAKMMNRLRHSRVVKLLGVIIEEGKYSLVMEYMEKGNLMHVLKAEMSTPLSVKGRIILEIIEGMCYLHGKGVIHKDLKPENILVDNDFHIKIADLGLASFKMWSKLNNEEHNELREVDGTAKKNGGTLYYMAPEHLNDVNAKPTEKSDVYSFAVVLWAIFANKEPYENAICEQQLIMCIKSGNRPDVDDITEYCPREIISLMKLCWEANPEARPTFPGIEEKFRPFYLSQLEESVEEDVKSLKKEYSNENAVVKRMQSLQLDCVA
# assay.notes: ADP-Glo luminescence assay, RIPK1 autophosphorylation
# Format: biochemical
# test.conditions: 1.5 μg/mL GST-hRIPK1 (8-327), 50 μM ATP, 3 hours at room temperature
property.measured: IC50

CC(C)(O)C(=O)N1OCC[C@H]1c1ccccc1 = < 1 µM
CC(C)C(=O)N1OCC[C@H]1c1ccc(F)cc1 = < 1 µM
N#CC1(C(=O)N2OCC[C@H]2c2ccccc2)CC1 = < 1 µM
CC1(C(=O)N2OCC[C@H]2c2ccccc2)CCC1 = < 1 µM

Please turn your attention to the following entry.
Answer with the recorded IC50 for the compound listed here: CC(C)(C)C(=O)N1OCCC1c1ccc(F)nc1 (stereo not drawn)
< 1 µM
